Reference source for all entries: patent US20220025021A1

molecular target: HIV-1 Env of pseudovirus SC422661.8 (HIV-1); assay: cell-based or functional assay
Listed here are binders together with their documented neutralization IC50.
Respond numerically; units are µg/mL and should not be typed.

Below, 2 binders whose answers are already recorded.
MS-80 (antibody, V domains shown) VH: QVQLVQSGPEVRKPGTSVKVSCKAPGNTLKTYDLHWVRSVPGQGLQWMGWISHEGDKKVIVERFKAKVTIDRDRSTNTAYLQLSGLTSGDTAVYYCAKGSKHRLRDYALYDDDGALNWAVDVDYLSNLEFWGQGTAVTVSS VL: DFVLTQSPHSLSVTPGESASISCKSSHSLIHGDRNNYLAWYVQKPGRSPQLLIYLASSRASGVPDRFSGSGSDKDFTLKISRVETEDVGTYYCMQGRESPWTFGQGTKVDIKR :: 0.451
MS-79 (antibody, V domains shown) VH: QVQLVQSGPEVRKPGTSVKVSCKAPGNTLKTYDLHWVRSVPGQGLQWMGWISHEGDKKVIVERFKAKVTITWDRSTNTAYLQLSGLTSGDTAVYYCAKGSKHRLRDYALYDDDGALNWAVDVDYLSNLEFWGQGTAVTVSS VL: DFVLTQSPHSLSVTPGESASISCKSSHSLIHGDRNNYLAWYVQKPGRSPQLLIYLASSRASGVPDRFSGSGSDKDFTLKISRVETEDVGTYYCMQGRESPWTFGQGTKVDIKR :: 0.587

Fill in: neutralization IC50 of MS-91 (antibody, V domains shown) VH: QVQLVQSGPEVRKPGTSVKVSCKASGYTLKTYDLHWVRSVPGQGLQWMGWISHEGDKKVIVERFKAKVTIDWDRSTNTAYLQLSGLTSGDTAVYYCAKGSKHRLRDYALYDDDGALNWAVDVDYLSNLEFWGQGTAVTVSS VL: DFVLTQSPLSLSVTPGESASISCKSSHSLIHGDRNNYLAWYVQKPGRSPQLLIYLASSRASGVPDRFSGSGSDTDFTLKISRVETEDVGTYYCMQGRESPWTFGQGTKVDIKR is ___
1.66
